B1: Twister Ribozyme (parent)
chain: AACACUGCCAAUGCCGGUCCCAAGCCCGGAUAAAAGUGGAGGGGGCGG

# Variants of: B1
# Protocol Summary: self-cleavage, relative activity (ratio to wild type); higher = more cleavage; co-transcriptional
// map self-cleavage onto a label; ranges class A: < 0.1; class B: ≥ 0.1 and < 0.2; class C: ≥ 0.2

For orientation, consider the following solved cases.
• C5G U31A = class C
• G17U G48A = class C
• A2C C25U = class A
• C21G A40U = class B
• G43U G47C = class B
• A33C A35U = class C
• A23G C27A = class B
• C9G C25G = class A

Q: In plain terms, what class is C9A A32G ?
Ans: class C

Q: In plain terms, what class is U6G G29U ?
Ans: class B

Q: In plain terms, what class is C3A G24A ?
Ans: class A

Q: In plain terms, what class is G28U G42C ?
Ans: class C

Q: In plain terms, what class is C5A G7U ?
Ans: class A

The reported measurements were obtained from the RNAGym collection of RNA variant scans (doi:10.7554/elife.80360).
